target: T1, hmm.hTfRC (REGN2431), human transferrin receptor extracellular domain with hexahistidine-myc-myc tag (human, UniProt P02786 89-760); experiment: SPR (Biacore), mAb captured on anti-human Fc, 100 nM hTFR-mmh, 25 C
T1 construct: Monomeric recombinant protein, 79210 g/mol; also called hTFR-mmh; His-myc-myc-hTFRC ecto
T1 sequence (P02786 other isoform, or with tags, fused parts or gaps): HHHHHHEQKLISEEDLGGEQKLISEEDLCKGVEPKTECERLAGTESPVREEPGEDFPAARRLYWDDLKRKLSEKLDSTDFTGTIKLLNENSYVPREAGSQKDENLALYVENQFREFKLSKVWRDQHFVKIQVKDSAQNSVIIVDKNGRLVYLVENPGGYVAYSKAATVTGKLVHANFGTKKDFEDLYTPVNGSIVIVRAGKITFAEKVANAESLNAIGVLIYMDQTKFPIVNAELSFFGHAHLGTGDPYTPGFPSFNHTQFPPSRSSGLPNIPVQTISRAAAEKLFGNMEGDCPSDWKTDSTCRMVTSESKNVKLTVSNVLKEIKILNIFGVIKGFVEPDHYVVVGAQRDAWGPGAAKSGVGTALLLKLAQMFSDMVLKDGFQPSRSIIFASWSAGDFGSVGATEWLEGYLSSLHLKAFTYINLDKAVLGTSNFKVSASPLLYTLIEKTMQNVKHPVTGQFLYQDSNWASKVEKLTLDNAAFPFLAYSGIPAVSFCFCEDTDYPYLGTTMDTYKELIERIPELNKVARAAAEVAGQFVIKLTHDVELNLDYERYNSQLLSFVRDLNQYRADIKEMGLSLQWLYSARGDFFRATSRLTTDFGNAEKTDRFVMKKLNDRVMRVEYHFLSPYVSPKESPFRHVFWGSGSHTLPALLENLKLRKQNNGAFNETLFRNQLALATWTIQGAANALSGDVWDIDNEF
Kd values by entry
experimentalEndpoint: Kd (nM)

1. 31874B (antibody, human IgG1, kappa, V domains shown, Tested as bivalent human IgG1 from CHO primary supernatant; also called H1H31874B; REGN17517) VH: EVQLVESGGGLVQPGGSLRLSCAASGFAFSSYAMTWVRQAPGKGLEWVSVISGTGGSTYYADSVKGRFTISRDNSKNTLYLQMNSLRAEDTAVYYCAKGGAARRMEYFQYWGQGTLVTVSS VL: DIQMTQSPSSLSASVGDRVTITCRASQGISNYLAWYQQKPGKVPNLLIYAASTLQSGVPSRFSGSGSGTDFTLTISSLQPEDVATYYCQKYNSAPLTFGGGTKVEIKR | 0.836
2. 12799B (antibody, human IgG1, kappa, V domains shown, Tested as bivalent human IgG1 from CHO primary supernatant; also called H1H12799B; REGN17508) VH: QITLKESGPTLVKPTQTLTLTCTFSGFSLSTSGVGVVWIRQPPGKALEWLALIYWNDHKRYSPSLGSRLTITKDTSKNQVVLTMTNMDPVDTATYYCAHYSGSYSYYYYGLDVWGQGTTVTVSS VL: DIQMTQSPSSVSASVGDRVTITCRASQGIASWLAWYQQKPGKAPELLIYAASSLQGGVPSRFSGSGSGTDFTLTISSLQPEDFAIYYCQQANYFPWTFGQGTKVEIKR | 0.851
3. 69340 (antibody, human IgG1, kappa, V domains shown, Tested as bivalent human IgG1 from CHO primary supernatant) VH: EVQLVESGGGLVQPGRSLRLSCAASGFTFDDKAMHWVRQVPGKGLEWISGISWNSGTIGYADSVKGRFIISRDNAKNSLYLQMNSLRAEDTALYYCAKDGDTSGWYWYGLDVWGQGTTVTVSS VL: EIVLTQSPATLSLSPGERATLSCRASQSVSSYLAWYQQKPGQAPRLLIHDVSNRATGIPARFSGSGSGTDFTLTISSLEPEDFVVYYCQQRSDWPITFGQGTRLEIKR | 0.429
